# test_system: α-Glucosidase (Saccharomyces cerevisiae, UniProt P53341)
# Construct: purchased Sigma-Aldrich Chemical Co
# Sequence (P53341 whole entry): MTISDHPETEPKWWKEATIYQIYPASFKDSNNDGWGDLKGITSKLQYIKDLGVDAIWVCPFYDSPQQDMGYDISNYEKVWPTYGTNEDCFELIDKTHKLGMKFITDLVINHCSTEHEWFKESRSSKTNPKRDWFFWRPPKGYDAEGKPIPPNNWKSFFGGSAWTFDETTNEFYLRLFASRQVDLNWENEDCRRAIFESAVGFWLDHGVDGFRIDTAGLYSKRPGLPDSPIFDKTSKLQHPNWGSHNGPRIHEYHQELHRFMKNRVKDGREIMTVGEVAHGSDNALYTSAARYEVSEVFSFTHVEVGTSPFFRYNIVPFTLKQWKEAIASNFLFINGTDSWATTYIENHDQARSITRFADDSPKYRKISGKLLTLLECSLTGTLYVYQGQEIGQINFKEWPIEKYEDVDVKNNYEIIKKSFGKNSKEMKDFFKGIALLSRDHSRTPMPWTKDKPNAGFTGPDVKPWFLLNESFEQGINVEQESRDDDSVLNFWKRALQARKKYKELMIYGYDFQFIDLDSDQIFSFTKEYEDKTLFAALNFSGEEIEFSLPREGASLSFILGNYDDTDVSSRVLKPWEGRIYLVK
# test_description: glycosidase inhibition assay, yeast α-glucosidase
# Assay type: biochemical
Task for the reader: assign each of the following compounds its reported inhibition at 100 µM.
Give bare numbers, in %.

Q. Give inhibition at 100 µM for the following compound: OCCC[C@@H](O)CCCCCCCCC[C@@H]1N[C@@H](CO)[C@@H](O)[C@H]1O [ent-3,10-di-epi-3]
A. 6.6

Q. Give inhibition at 100 µM for the following compound: OCCCC(O)CCCCCCCCCC1NC(CO)C(O)C1O (stereo not drawn) [2,10-di-epi-3]
A. 3.2

Q. Give inhibition at 100 µM for the following compound: OCCC[C@@H](O)CCCCCCCCC[C@H]1N[C@@H](CO)[C@@H](O)[C@@H]1O [2-epi-3]
A. 1.6

From here, focus on the item given below.
Q. Give inhibition at 100 µM for the following compound: OCCC[C@H](O)CCCCCCCCC[C@H]1N[C@H](CO)[C@@H](O)[C@@H]1O [10’-epi-3]
A. 4.6

Sourced from paper PMC6832352
